Reported half-life is given for each of the following compounds.
Experiment Summary: Pharmacokinetic assay in Balb/c mice (plasma and brain tissue)
Assay type: in vivo
Condition Details: mouse, po; plasma, 5 mg/kg p.o., male Balb/c mice; read-out: Half-life t1/2 (converted)
Kindly provide the numeric value in min only, without the unit symbol.

Record excerpt, results attached:
>>> readout_value("CC[C@@H]1C[C@H](C(=O)Cn2ccc(C#N)n2)[C@@]2(C)CC[C@H]3[C@@H](CC[C@@H]4C[C@](C)(O)CC[C@@H]43)[C@H]12 [Example 137]")
231
>>> readout_value("C[C@@]1(O)CC[C@H]2[C@H](CC[C@@H]3[C@@H]2CC[C@@]2(C)[C@H]3[C@@H]3C[C@@H]3[C@@H]2C(=O)Cn2ncnn2)C1 [Example 9]")
54
>>> readout_value("C[C@@H]1C[C@H](C(=O)Cn2ccc(C#N)n2)[C@@]2(C)CC[C@H]3[C@@H](CC[C@@H]4C[C@](C)(O)CC[C@@H]43)[C@H]12 [Example 60]")
98.4
>>> readout_value("Cc1nnn(CC(=O)[C@H]2C[C@@H](C3CC3)[C@H]3[C@@H]4CC[C@@H]5C[C@](C)(O)CC[C@@H]5[C@H]4CC[C@@]32C)n1 [Example 74]")
184
>>> readout_value("C[C@@H]1C[C@H](C(=O)Cn2nccn2)[C@@]2(C)CC[C@H]3[C@@H](CC[C@@H]4C[C@](C)(O)CC[C@@H]43)[C@H]12 [Example 61]")
196

Given C[C@@]1(O)CC[C@H]2[C@H](CC[C@@H]3[C@@H]2CC[C@@]2(C)[C@H]3[C@@H]3C[C@@H]3[C@@H]2C(=O)Cn2cc(C(F)(F)F)cn2)C1 [Example 5] , state its recorded half-life.
307

What do we get for C[C@@H]1C[C@H](C(=O)Cn2nc(C#N)cc2C#N)[C@@]2(C)CC[C@H]3[C@@H](CC[C@@H]4C[C@](C)(O)CC[C@@H]43)[C@H]12 [Example 135] ?
124

What do we get for CC[C@@H]1C[C@H](C(=O)Cn2ccnn2)[C@@]2(C)CC[C@H]3[C@@H](CC[C@@H]4C[C@](C)(O)CC[C@@H]43)[C@H]12 [Example 140] ?
71.4

What do we get for CC[C@@H]1C[C@H](C(=O)Cn2cc(C#N)cn2)[C@@]2(C)CC[C@H]3[C@@H](CC[C@@H]4C[C@](C)(O)CC[C@@H]43)[C@H]12 [Example 81] ?
158

What do we get for C[C@@]1(O)CC[C@H]2[C@H](CC[C@@H]3[C@@H]2CC[C@@]2(C)[C@H]3[C@H](C3CC3)C[C@@H]2C(=O)Cn2ncnn2)C1 [Example 146] ?
87

What do we get for C[C@@]1(O)CC[C@H]2[C@H](CC[C@@H]3[C@@H]2CC[C@@]2(C)[C@H]3[C@@H]3C[C@@H]3[C@@H]2C(=O)Cn2ccc(C#N)n2)C1 [Example 3] ?
30
